The origin of these recorded values is PubChem BioAssay.

Entries and their GFP response vs DMSO
- RUN DESCRIPTION: modulators of MEP2-GFP levels in yeast, confirmation, S. cerevisiae, flow cytometry GFP, cherry picks (AID 2272);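 also: ratio of well signal to plate DMSO mean so 100% equals DMSO level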
- CONDITION CONTEXT: S. cerevisiae MEP2-GFP strain, 3 h, at 10 µM, stronger effect = higher value
Number only, in %; omit the unit.

These recorded examples may help you get a feel for the data.
| MOLECULE | GFP response vs DMSO / % |
| --- | --- |
| Cc1ccc(CN2CCSc3sccc3C2=O)cc1 | 96.8 |
| CCNC(=O)c1c(O)c2cccc3c2n(c1=O)CC3 | 94.7 |
| Cc1noc2ncnc(Sc3ccccc3Cl)c12 | 109 |
| COC(=O)c1ccc(N2C(=O)CC(Sc3n[nH]c(C)n3)C2=O)cc1 (centres undefined) | 108 |
| C(=N\Nc1ccccn1)/c1c[nH]c2ccccc12 | 101 |

Please report GFP response vs DMSO for the following molecule: Cc1ccc2c(c1)c1c(c(=O)n(-c3ccccc3C)c(=O)n1CC(=O)NCC1CCCO1)n2C (centres undefined)
100

Please report GFP response vs DMSO for the following molecule: "O=C(c1ccc2ccccc2c1)N1CCN(c2ccc(O)cc2)CC1"
106

====

- TARGET DESC: AP-2 complex subunit beta (Homo sapiens) (UniProt P63010)
- Sequence (P63010 whole entry, looked up, one chain of several): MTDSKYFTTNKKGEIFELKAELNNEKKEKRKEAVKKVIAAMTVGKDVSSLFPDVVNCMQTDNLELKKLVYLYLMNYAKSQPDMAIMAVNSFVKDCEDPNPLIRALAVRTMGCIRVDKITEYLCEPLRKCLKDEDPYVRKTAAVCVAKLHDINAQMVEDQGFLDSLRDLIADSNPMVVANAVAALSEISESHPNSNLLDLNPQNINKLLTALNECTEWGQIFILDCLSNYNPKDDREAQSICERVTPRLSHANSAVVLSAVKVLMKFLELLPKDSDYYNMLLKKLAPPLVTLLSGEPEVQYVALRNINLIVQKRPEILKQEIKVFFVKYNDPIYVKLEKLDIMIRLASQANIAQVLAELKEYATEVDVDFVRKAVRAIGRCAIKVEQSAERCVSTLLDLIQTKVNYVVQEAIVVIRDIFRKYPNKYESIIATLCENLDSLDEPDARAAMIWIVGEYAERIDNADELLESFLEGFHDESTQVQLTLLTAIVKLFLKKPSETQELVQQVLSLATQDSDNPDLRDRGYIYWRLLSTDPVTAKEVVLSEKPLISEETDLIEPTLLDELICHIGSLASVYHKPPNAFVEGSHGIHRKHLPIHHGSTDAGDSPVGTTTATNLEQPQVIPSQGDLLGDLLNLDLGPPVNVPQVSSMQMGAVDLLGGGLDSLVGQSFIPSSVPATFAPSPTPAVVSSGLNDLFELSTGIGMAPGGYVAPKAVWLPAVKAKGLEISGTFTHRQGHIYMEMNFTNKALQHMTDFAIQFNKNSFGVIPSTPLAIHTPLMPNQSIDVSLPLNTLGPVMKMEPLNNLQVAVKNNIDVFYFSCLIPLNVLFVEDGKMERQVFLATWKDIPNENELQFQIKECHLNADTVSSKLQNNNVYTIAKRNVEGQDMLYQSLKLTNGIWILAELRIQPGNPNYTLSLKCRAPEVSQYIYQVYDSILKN
- RUN DESCRIPTION: inhibitors of arrestin peptide binding to AP2, pilot screen, biochemical, validation set, GST-AP2 beads, flow cytometry (AID 504541);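 also: AP2 carries R879A mutation and is captured from E. coli lysate; bead-bound FITC arrestin peptide fluorescence measuring arrestin peptide binding to AP2; 0% = DMSO wells and 100% = excess unlabeled arrestin peptide control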
- CONDITION CONTEXT: FITC arrestin peptide, at 10 µM, stronger effect = higher value, AP2 beta2 appendage fragment, R879A mutant
OUTCOME MEASURE: inhibition (%)
Number only, in %; omit the unit.

These recorded examples may help you get a feel for the data.
| MOLECULE | inhibition / % |
| --- | --- |
| C/C(=N\N=C1\NC(=O)C(CC(=O)Nc2ccc(Cl)cc2)S1)c1ccco1 (stereo not given) | 3.65 |
| CC(C)Cc1nc(NCCN2CCOCC2)c(C#N)c2c1COC(C)(C)C2 | -18.1 |
| CCN(Cc1cnn(C)c1)Cc1nc(C(c2ccccc2)c2ccccc2)no1 | -13.6 |
| COc1cc(OC)c(C2C(C#N)=C(N)OC3=C2C(=O)CC(C)(C)C3)cc1OC (stereo not given) | 5.17 |
| CN1CCC(=C2c3ccccc3C=Cc3ccccc32)CC1 | 24.3 |
| CC(C)(C)C(=O)NC(=S)Nc1sc2c(c1C(N)=O)CCC2 | 2.56 |

Provide AP-2 complex subunit beta (Homo sapiens) (UniProt P63010) inhibition reading for "CC(=O)NCCCCCCNC(C)=O" .
-11.9

Provide AP-2 complex subunit beta (Homo sapiens) (UniProt P63010) inhibition reading for "CN1CCN(CCCN2c3ccccc3Sc3ccc(C(F)(F)F)cc32)CC1" .
1.45

Provide AP-2 complex subunit beta (Homo sapiens) (UniProt P63010) inhibition reading for "O=S(=O)(NCCCCCNS(=O)(=O)c1ccccc1)c1ccccc1" .
3.03

Provide AP-2 complex subunit beta (Homo sapiens) (UniProt P63010) inhibition reading for "CCCN1C[C@H](CSC)C[C@@H]2c3cccc4[nH]cc(c34)C[C@H]21" .
1.85

====

- RUN DESCRIPTION: inhibitors of CD8+ T cell-vesicle binding, pilot screen, LFA-1/ICAM-1 modulator project, MLPCN validation set, flow cytometry (AID 2523);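 also: mean PE anti-B7-1 fluorescence of CD8+ cells relative to row control; 100% = QL9-loaded vesicles with DMSO vehicle in the same plate row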
- CONDITION CONTEXT: 2C mouse CD8+ T cells, at 7 µM, stronger effect = lower value
Param label: returns t when vesicle binding response < 200%, returns f otherwise, including exact equality.

| MOLECULE | LABEL VALUE |
| --- | --- |
| COc1ccc(C2CNC(=O)C2)cc1OC1CCCC1 (stereo unspecified) | t |
| Nc1ccc(N=Nc2ccccc2)c(N)n1 | t |
| O=[N+]([O-])c1ccc2cn[nH]c2c1 | f |

Dear reviewer, please state whether "Cc1nc(C(=O)Nc2ccccc2Cl)cc2c1[nH]c1ccccc12" has vesicle binding response strictly beneath 200%.
t

Dear reviewer, please state whether Cn1c(=O)c2c(ncn2CC(O)CO)n(C)c1=O (stereo unspecified) has vesicle binding response strictly beneath 200%.
t

Dear reviewer, please state whether "CCc1cc(=O)oc2cc(OCC=C(C)C)ccc12" has vesicle binding response strictly beneath 200%.
f

====

- RUN DESCRIPTION: RPL19A-GFP modulators, yeast TOR pathway, confirmation, cell-based, S. cerevisiae, flow cytometry, cherry picks, mother/daughter gates (AID 2270)
- CONDITION CONTEXT: S. cerevisiae RPL19A-GFP strain, 3 h, measured here: daughter cell gate, at 10 µM, stronger effect = lower value, 100 = same GFP as DMSO wells
Entries and their GFP response vs DMSO
Number only, in %; omit the unit.

These recorded examples may help you get a feel for the data.
| COMPOUND | RECORDED RESULT |
| --- | --- |
| S=C(Sc1ccc(Cl)cc1)Sc1ccc(Cl)cc1 | 93.2 |
| Cc1ccc(N(C(=O)CCCC(=O)Nc2ccccn2)C(C(=O)NC2CCCC2)c2ccc(O)cc2)cc1C (centres undefined) | 99 |
| O=C1C(CSCc2ccccc2)NC(=S)N1c1ccccc1 (centres undefined) | 102 |
| COc1ccc(C2CC(c3ccccc3)=NN2S(=O)(=O)c2ccccc2)c(OC)c1 (centres undefined) | 99.8 |
| O=C(CSc1ccc(Cl)cc1)Nc1cccc(-c2nc3ccccc3[nH]2)c1 | 98 |

Please report GFP response vs DMSO for the following compound: "COCCCNC(=O)c1ccc2c3c(onc13)-c1ccccc1C2=O"
102

Please report GFP response vs DMSO for the following compound: "c1ccc(CSc2ccc(-c3ccccn3)nn2)cc1"
97.1

Please report GFP response vs DMSO for the following compound: "COc1ccc(/C=C/C(=O)c2ccccc2O)cc1"
96.7

Please report GFP response vs DMSO for the following compound: "Nc1cccc(C(=O)Nc2ccccc2Cl)c1"
99.1

====

- RUN DESCRIPTION: LAP4-GFP expression modulators in yeast, confirmation, cell-based, cherry picks, flow cytometry, mother/daughter gates (AID 2271);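 also: ratio of sample to DMSO plate mean so 100% equals DMSO level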
- CONDITION CONTEXT: S. cerevisiae LAP4-GFP strain, 3 h, at 10 µM, stronger effect = higher value, 100 means same as DMSO control
OUTCOME MEASURE: GFP response relative to DMSO (%)
Number only, in %; omit the unit.

These recorded examples may help you get a feel for the data.
| MOLECULE | OUTCOME MEASURE | RECORDED RESULT |
| --- | --- | --- |
| CCc1c(C)c2cc(Cl)c(O)c(CN(C)C)c2oc1=O | GFP response relative to DMSO | 95.3 |
| Cc1nn(C)c(C(=O)Sc2cccc(Cl)c2)c1[N+](=O)[O-] | GFP response relative to DMSO | 126 |
| COc1ccc(N=Nc2ccc(O)c3ncccc23)cc1 | GFP response relative to DMSO | 199 |
| O=C1c2ccsc2SCCN1Cc1cccc(Cl)c1 | GFP response relative to DMSO | 108 |
| COC(=O)c1ccccc1Sc1ncnc2onc(C)c12 | GFP response relative to DMSO | 111 |
| O=[N+]([O-])c1cc(C(F)(F)F)ccc1Sc1ccc2ccccc2n1 | GFP response relative to DMSO | 115 |

Please report GFP response relative to DMSO for the following molecule: CC(=O)Nc1ccc(S(=O)(=O)NC(CC(=O)NCCC2=CCCCC2)C(C)C)cc1 (stereo unspecified)
99.2

Please report GFP response relative to DMSO for the following molecule: "O=c1[nH]c(-c2ccccn2)nc(C(F)(F)F)c1Br"
247

Please report GFP response relative to DMSO for the following molecule: "COc1cc(OC)cc(-c2nc(-c3ccccc3OC)no2)c1"
97.7

Please report GFP response relative to DMSO for the following molecule: "O=C(Oc1c(Cl)cc(Cl)c2cccnc12)c1ccco1"
196

Please report GFP response relative to DMSO for the following molecule: "Cc1ccccc1Oc1ncnc2oc(-c3ccccc3)cc12"
96.7

Please report GFP response relative to DMSO for the following molecule: "Cc1cc(NCCOCCO)n2ncc(-c3ccc(Cl)cc3)c2n1"
100

Please report GFP response relative to DMSO for the following molecule: "CCOC(=O)CSC1=NC(=O)/C(=C\c2ccc(Cl)cc2)S1"
197

Please report GFP response relative to DMSO for the following molecule: "COc1cccc(/C=N/NC(=O)CCC(=O)Nc2ccc(Br)cc2)c1"
90.6

Please report GFP response relative to DMSO for the following molecule: "Clc1ccc(-c2nnnn2-c2ccc(Cl)cc2)cc1"
97.7

Please report GFP response relative to DMSO for the following molecule: Cc1ccc2c(c1)c1c(c(=O)n(-c3ccccc3C)c(=O)n1CC(=O)NCC1CCCO1)n2C (stereo unspecified)
102

====

- RUN DESCRIPTION: LAP4-GFP expression modulators in yeast, confirmation, cell-based, cherry picks, flow cytometry, mother/daughter gates (AID 2271);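 also: ratio of sample to DMSO plate mean so 100% equals DMSO level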
- CONDITION CONTEXT: S. cerevisiae LAP4-GFP strain, 3 h, measured here: mother cell gate response, at 10 µM, stronger effect = higher value, 100 means same as DMSO control
OUTCOME MEASURE: GFP response relative to DMSO (%)
Number only, in %; omit the unit.

These recorded examples may help you get a feel for the data.
| INPUT SMILES | OUTCOME MEASURE | UNIT OF MEASURE | RECORDED RESULT |
| --- | --- | --- | --- |
| COc1ccc(NC(=S)NCCCCCC(=O)C[N+](=O)[O-])cc1 | GFP response relative to DMSO | % | 89.7 |
| CCOC(=O)C1(CCCc2ccccc2)CCN(C(=O)c2cc(C)nn2CC)CC1 | GFP response relative to DMSO | % | 98.5 |
| O=C(c1ccc([N+](=O)[O-])o1)N(Cc1nnc(-c2ccccc2Cl)o1)C1CC1 | GFP response relative to DMSO | % | 98.4 |

Please report GFP response relative to DMSO for the following compound: "COc1ccc(-c2csc(NC(=O)CSc3nc(C)nc4sc(C(=O)O)c(C)c34)n2)cc1"
89

Please report GFP response relative to DMSO for the following compound: "Cc1cc(=O)n2c3c(sc2n1)C(=O)N(Cc1ccccc1)C3=O"
161
